method notes: Lung pharmacokinetic profiling in guinea pigs after intratracheal instillation
Format: in vivo, guinea pigs (Cavia porcellus)
measurement parameters: male, guinea pig, other: intratracheal, 1.6 mg
assay metric: concentration at 3 h

Reported concentration at 3 h of `C[C@@H](O)[C@H]1C(=O)N2C(C(=O)O)=C(S[C@@H]3CN[C@H](C(=O)N(C)C)C3)[C@H](C)[C@H]12` : < 1000 ng/mL

----------
method notes: Lung pharmacokinetic profiling in guinea pigs after intratracheal instillation
Type: in vivo, guinea pigs (Cavia porcellus)
measurement parameters: male, guinea pig, other: intratracheal, 1.6 mg
assay metric: concentration at 9 h
Please answer using the number first and the unit second.

Reported concentration at 9 h of C[C@@H](O)[C@H]1C(=O)N2C(C(=O)O)=C(S[C@@H]3CN[C@H](C(=O)N(C)C)C3)[C@H](C)[C@H]12 [meropenem] : 12 ng/mL

----------
method notes: Lung pharmacokinetic profiling in guinea pigs after intratracheal instillation
Format: in vivo, guinea pigs (Cavia porcellus)
measurement parameters: male, guinea pig, inhaled or intranasal, 1.6 mg
assay metric: Cmax

Reported Cmax of C[C@@H](O)[C@H]1C(=O)N2C(C(=O)O)=C(S[C@@H]3CN[C@H](C(=O)N(C)C)C3)[C@H](C)[C@H]12 [meropenem] : > 70 µg/mL

----------
method notes: Lung pharmacokinetic profiling in guinea pigs after intratracheal instillation
Type: in vivo, guinea pigs (Cavia porcellus)
measurement parameters: male, guinea pig, other: intratracheal, 1.6 mg
assay metric: concentration at 12 h (ng/mL)
Numbers only; they are read as ng/mL.

Reported concentration at 12 h of `C[C@@H](O)[C@H]1C(=O)N2C(C(=O)O)=C(S[C@@H]3CN[C@H](C(=O)N(C)C)C3)[C@H](C)[C@H]12` : 10
